Here the recorded Total Cell Count is given for each entry.
- System: HEK-293T
- Test Method Notes: Multiplex assay against HEK293T
- Assay type: toxicity, cell-based
- Measurement Setup: human, 24 h, 1 µM, compound concentration 1 uM, replicate 2
Recorded Endpoint: Total Cell Count

{"columns": ["Molecule", "Numeric Result"],
 "data": [
  ["O=C(O)c1ccc2cc(-c3ccc(O)c(C45CC6CC(CC(C6)C4)C5)c3)ccc2c1 [O-DEMETHYLATED ADAPALENE]", 257],
  ["COc1ccc(NS(=O)(=O)c2sc3ccc(Cl)cc3c2C)cc1N1CCNCC1.Cl", 278],
  ["CCCn1c(=O)c2[nH]c(C34CC5CC(CC3C5)C4)nc2n(CCC)c1=O [ROLOFYLLINE]", 228],
  ["CN(C)CCOc1ccc(-c2nc(-c3ccncc3)c(-c3ccc4c(c3)CC/C4=N\\O)[nH]2)cc1 [SB590885]", 1437]
]}
